Target: HER-2 kinase (Homo sapiens, UniProt P04626)
Sequence (P04626 23-1255): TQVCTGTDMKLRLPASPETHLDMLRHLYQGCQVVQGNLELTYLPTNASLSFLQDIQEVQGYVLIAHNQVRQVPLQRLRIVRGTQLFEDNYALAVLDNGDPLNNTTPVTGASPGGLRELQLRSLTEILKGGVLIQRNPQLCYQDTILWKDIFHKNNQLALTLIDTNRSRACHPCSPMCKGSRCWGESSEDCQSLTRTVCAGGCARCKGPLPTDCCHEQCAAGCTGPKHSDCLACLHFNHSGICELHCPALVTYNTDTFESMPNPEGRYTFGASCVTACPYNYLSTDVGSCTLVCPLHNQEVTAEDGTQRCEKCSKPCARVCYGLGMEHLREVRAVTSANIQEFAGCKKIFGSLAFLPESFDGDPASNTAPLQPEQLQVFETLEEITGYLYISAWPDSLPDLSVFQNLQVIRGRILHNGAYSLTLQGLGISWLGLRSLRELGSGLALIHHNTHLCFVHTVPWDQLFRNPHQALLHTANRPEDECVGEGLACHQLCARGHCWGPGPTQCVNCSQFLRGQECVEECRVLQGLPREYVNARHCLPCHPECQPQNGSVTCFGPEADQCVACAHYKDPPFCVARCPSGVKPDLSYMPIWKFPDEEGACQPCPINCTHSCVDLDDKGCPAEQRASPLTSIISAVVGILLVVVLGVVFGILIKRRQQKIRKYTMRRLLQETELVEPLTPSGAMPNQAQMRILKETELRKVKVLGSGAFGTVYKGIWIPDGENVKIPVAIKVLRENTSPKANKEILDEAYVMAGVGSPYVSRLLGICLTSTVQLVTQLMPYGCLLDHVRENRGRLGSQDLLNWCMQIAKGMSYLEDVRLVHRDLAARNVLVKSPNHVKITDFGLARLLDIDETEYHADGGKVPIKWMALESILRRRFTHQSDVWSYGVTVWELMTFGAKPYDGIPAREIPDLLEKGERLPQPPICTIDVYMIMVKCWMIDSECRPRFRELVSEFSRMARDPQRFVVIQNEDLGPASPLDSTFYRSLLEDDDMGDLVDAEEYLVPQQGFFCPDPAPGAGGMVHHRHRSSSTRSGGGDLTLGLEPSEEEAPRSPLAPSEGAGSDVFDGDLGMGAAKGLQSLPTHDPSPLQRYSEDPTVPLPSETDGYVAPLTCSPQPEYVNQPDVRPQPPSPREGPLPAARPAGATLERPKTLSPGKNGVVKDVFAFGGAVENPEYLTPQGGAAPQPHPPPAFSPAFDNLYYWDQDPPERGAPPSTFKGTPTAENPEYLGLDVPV
Assay: HER-2 kinase activity assay (time-resolved fluorescence)
Details: table of the HER-2 kinase activity assay; human-derived recombinant HER-2 kinase, 20 μM ATP, 25° C., 45 minutes; read-out: IC50 (HER-2/SK-BR-3)
parameter-measured: IC50 (nM)
Answers are plain numbers, in nM.

CCOc1cc2ncc(C#N)c(Nc3ccc(OCc4ccccn4)c(Cl)c3)c2cc1NC(=O)/C=C/[C@H]1CCCN1C.O=C(O)/C=C\C(=O)O [Example 2, dimaleate] = 28
CCOc1cc2ncc(C#N)c(Nc3ccc(OCc4ccccn4)c(Cl)c3)c2cc1NC(=O)/C=C/[C@H]1CCCN1C.Cc1ccc(S(=O)(=O)O)cc1 [Example 7, p-toluenesulfonate] = 64
CCOc1cc2ncc(C#N)c(Nc3ccc(OCc4ccccn4)c(Cl)c3)c2cc1NC(=O)/C=C/[C@H]1CCCN1C.O=C(O)CCC(=O)O [Example 8, succinate] = 53

Switching to the query record.
What the record says about CCOc1cc2ncc(C#N)c(Nc3ccc(OCc4ccccn4)c(Cl)c3)c2cc1NC(=O)/C=C/[C@H]1CCCN1C [Example 1f] : IC50 is 65

Recorded values, source patent US20130338190A1.
